Biological target: biotin-labeled DsbA (Escherichia coli, UniProt P0AEG4)
Construct: purchased abcam
Sequence (P0AEG4 20-208): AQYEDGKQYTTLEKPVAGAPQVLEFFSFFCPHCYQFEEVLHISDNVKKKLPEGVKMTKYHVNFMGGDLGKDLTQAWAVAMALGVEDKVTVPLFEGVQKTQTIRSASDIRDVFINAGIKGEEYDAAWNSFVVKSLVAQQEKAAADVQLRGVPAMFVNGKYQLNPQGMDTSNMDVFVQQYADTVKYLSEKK
Experiment: Peptide microarray binding of biotin-labeled DsbA, Cy5-streptavidin fluorescence detection
Details: fluorescent signal intensity measured by peptide microarray
Source text: […]
No end group written: not given here.
// label = 1 (yes) if SIGNAL INTENSITY is not less than 2000, otherwise 0 (no)

Use these answered entries as a reference point.
DFWHGEQCKVTQFDQ-NH2
1 (yes)
VIVGQCLKK-NH2
0 (no)

Answer whether SIGNAL INTENSITY of WQYENWAITKWQCVK-NH2 is greater than or equal to 2000.
0 (no)

Answer whether SIGNAL INTENSITY of HNWAAQCLNPDQAKL-NH2 is greater than or equal to 2000.
1 (yes)

Answer whether SIGNAL INTENSITY of YVYGMCWKDYTTDK-NH2 is greater than or equal to 2000.
1 (yes)

----------
biological target: biotin-labeled DsbA (Escherichia coli); construct: purchased abcam; experiment: Biacore kinetic analysis of peptide binding to immobilized biotin-labeled DsbA
No end group written: not given here.
Answer each item with its documented koff.
Answers are plain numbers, in s⁻¹.

NDYQYKGQQCLDPKY-NH2
0.0246
DFWHGEQCKVTQFDQ-NH2
0.0139
HNWAAQCLNPDQAKL-NH2
0.0292
HNWAAQCLKDQAKL-NH2
0.0448
DFWHGETCKVTQFDQ-NH2
0.0185
DFWHGDTCKVTQFDQ-NH2
0.0271

Hi there! I need koff for each item below, if you can.
1. YVYGMCWKDYTTDK-NH2
2. YVYGMCWKDYTDTDK-NH2

1. 0.057
2. 0.0627

----------
Target: biotin-labeled DsbA (Escherichia coli)
Construct: purchased abcam
Sequence (P0AEG4 20-208): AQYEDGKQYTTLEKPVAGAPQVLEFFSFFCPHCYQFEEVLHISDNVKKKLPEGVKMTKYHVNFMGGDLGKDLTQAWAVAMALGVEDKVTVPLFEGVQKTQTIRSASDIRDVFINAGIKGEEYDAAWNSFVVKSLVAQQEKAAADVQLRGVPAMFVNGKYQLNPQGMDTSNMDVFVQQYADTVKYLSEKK
Assay: Biacore kinetic analysis of peptide binding to immobilized biotin-labeled DsbA
No end group written: not given here.
Entries whose kon is below 300000 M⁻¹ s⁻¹ take rule met; entries at or above 300000 M⁻¹ s⁻¹ take rule not met.

Use these answered entries as a reference point.
YVYGMCWKDYTTDK-NH2
rule not met
DFWHGEQCKVTQFDQ-NH2
rule met
HNWAAQCLKDQAKL-NH2
rule not met

Determine if DFWHGETCKVTQFDQ-NH2 shows kon strictly lower than 300000 M⁻¹ s⁻¹.
rule met

Determine if YVYGMCWKDYTDTDK-NH2 shows kon strictly lower than 300000 M⁻¹ s⁻¹.
rule not met

Determine if HNWAAQCLNPDQAKL-NH2 shows kon strictly lower than 300000 M⁻¹ s⁻¹.
rule not met

Determine if DFWHGDTCKVTQFDQ-NH2 shows kon strictly lower than 300000 M⁻¹ s⁻¹.
rule met

Determine if NDYQYKGQQCLDPKY-NH2 shows kon strictly lower than 300000 M⁻¹ s⁻¹.
rule not met

FYI, the data here is from patent US12595591B2.
